- experiment_description: Biodistribution in BDL rats with and without excess cold compound
- Format: in vivo
- condition_set: male, Sprague Dawley, rat, thyroid, iv, total radioactivity, BDL rats, 15 days post-op, 1 hour post-injection, 100-fold excess cold Compound 8; read-out: Activity in Thyroid, Mean
Numbered stars: 1 amine (or outer) side, 2 acyl side, 3 side chain; on linkers, the order of the positions; unused ones are H or OH. Bridge positions count the residues as written; N and C are the ends. Side chains are listed from the residue outwards. Peptide text beside a SMILES is read from it. * marks the point of attachment. X1 = C/C(=N\O)C(C)(C)NCCC(CCNC(C)(C)/C(C)=N/O)CCN*; Glutaryl = O=C(CCCC(=O)[*:2])[*:1]; X2 = NC(=O)COCC(=O)NCCOCCOCCOCCN*
value_kind: tissue uptake dose at 1 h (%ID)

compound | reported_result
C/C(=N\O)C(C)(C)NCCC(CCNC(=O)CCCC(=O)NCCCC[C@@H]1NC(=O)CSC[C@@H](C(=O)NCCOCCOCCOCCNC(=O)COCC(N)=O)NC(=O)[C@H](Cc2ccccc2)NC(=O)[C@@H]2CSSC[C@H](NC1=O)C(=O)N[C@@H](CCCNC(=N)N)C(=O)NCC(=O)N[C@@H](CC(=O)O)C(=O)N2)CCNC(C)(C)/C(C)=N/O (stereo partly shown) [Compound 8] ({CH2CO}-K([Glutaryl-X1])CRGDCFC-X2; disulfide 2-6; thioether N-8) | 0.04

* * *

- experiment_description: Biodistribution in BDL rats with and without excess cold compound
- Format: in vivo
- condition_set: male, Sprague Dawley, rat, stomach, iv, total radioactivity, BDL rats, 15 days post-op, 1 hour post-injection, 10K-fold excess cold Compound 8; read-out: Activity in Stomach, Mean
- Experimental: On the appropriate day post surgery BDL and sham animals were removed and put under isoflurane anaesthesia, then each animal was injected with 0.3 ml intravenously (i.v.) via tail vein (˜3MBq). At the appropriate time point post-injection of the test item, each animal was re-anaesthetised with isoflurane, sacrificed by cervical dislocation weighed and the weight recorded via a barcode scanning system. […]
Numbered stars: 1 amine (or outer) side, 2 acyl side, 3 side chain; on linkers, the order of the positions; unused ones are H or OH. Bridge positions count the residues as written; N and C are the ends. Side chains are listed from the residue outwards. Peptide text beside a SMILES is read from it. * marks the point of attachment. X1 = C/C(=N\O)C(C)(C)NCCC(CCNC(C)(C)/C(C)=N/O)CCN*; Glutaryl = O=C(CCCC(=O)[*:2])[*:1]; X2 = NC(=O)COCC(=O)NCCOCCOCCOCCN*

molecule | unit_of_measurement | tissue uptake dose at 1 h
C/C(=N\O)C(C)(C)NCCC(CCNC(=O)CCCC(=O)NCCCC[C@@H]1NC(=O)CSC[C@@H](C(=O)NCCOCCOCCOCCNC(=O)COCC(N)=O)NC(=O)[C@H](Cc2ccccc2)NC(=O)[C@@H]2CSSC[C@H](NC1=O)C(=O)N[C@@H](CCCNC(=N)N)C(=O)NCC(=O)N[C@@H](CC(=O)O)C(=O)N2)CCNC(C)(C)/C(C)=N/O (stereo partly shown) [Compound 8] ({CH2CO}-K([Glutaryl-X1])CRGDCFC-X2; disulfide 2-6; thioether N-8) | %ID | 1.69

* * *

- experiment_description: Biodistribution in sham-operated rats with and without excess cold compound
- Format: in vivo
- condition_set: male, Sprague Dawley, rat, blood, iv, total radioactivity, 15 days post-op, 1 hour post-injection, +100-fold excess cold Compound 8, read-out: Activity in Blood, Mean
Numbered stars: 1 amine (or outer) side, 2 acyl side, 3 side chain; on linkers, the order of the positions; unused ones are H or OH. Bridge positions count the residues as written; N and C are the ends. Side chains are listed from the residue outwards. Peptide text beside a SMILES is read from it. * marks the point of attachment. X1 = C/C(=N\O)C(C)(C)NCCC(CCNC(C)(C)/C(C)=N/O)CCN*; Glutaryl = O=C(CCCC(=O)[*:2])[*:1]; X2 = NC(=O)COCC(=O)NCCOCCOCCOCCN*
value_kind: tissue uptake dose at 1 h (%ID)

molecule | reported_result
C/C(=N\O)C(C)(C)NCCC(CCNC(=O)CCCC(=O)NCCCC[C@@H]1NC(=O)CSC[C@@H](C(=O)NCCOCCOCCOCCNC(=O)COCC(N)=O)NC(=O)[C@H](Cc2ccccc2)NC(=O)[C@@H]2CSSC[C@H](NC1=O)C(=O)N[C@@H](CCCNC(=N)N)C(=O)NCC(=O)N[C@@H](CC(=O)O)C(=O)N2)CCNC(C)(C)/C(C)=N/O (stereo partly shown) [Compound 8] ({CH2CO}-K([Glutaryl-X1])CRGDCFC-X2; disulfide 2-6; thioether N-8) | 1.37

* * *

- experiment_description: Biodistribution in sham-operated rats with and without excess cold compound
- Format: in vivo
- condition_set: male, Sprague Dawley, rat, stomach, iv, 3 MBq, total radioactivity, 15 days post-op, 1 hour post-injection, no excess, read-out: Activity in Stomach, Mean
Numbered stars: 1 amine (or outer) side, 2 acyl side, 3 side chain; on linkers, the order of the positions; unused ones are H or OH. Bridge positions count the residues as written; N and C are the ends. Side chains are listed from the residue outwards. Peptide text beside a SMILES is read from it. * marks the point of attachment. X1 = C/C(=N\O)C(C)(C)NCCC(CCNC(C)(C)/C(C)=N/O)CCN*; Glutaryl = O=C(CCCC(=O)[*:2])[*:1]; X2 = NC(=O)COCC(=O)NCCOCCOCCOCCN*

compound | tissue uptake dose at 1 h
C/C(=N\O)C(C)(C)NCCC(CCNC(=O)CCCC(=O)NCCCC[C@@H]1NC(=O)CSC[C@@H](C(=O)NCCOCCOCCOCCNC(=O)COCC(N)=O)NC(=O)[C@H](Cc2ccccc2)NC(=O)[C@@H]2CSSC[C@H](NC1=O)C(=O)N[C@@H](CCCNC(=N)N)C(=O)NCC(=O)N[C@@H](CC(=O)O)C(=O)N2)CCNC(C)(C)/C(C)=N/O (stereo partly shown) [Compound 8] ({CH2CO}-K([Glutaryl-X1])CRGDCFC-X2; disulfide 2-6; thioether N-8) | 0.9 %ID

* * *

- experiment_description: Biodistribution in BDL rats with and without excess cold compound
- Assay type: in vivo
- condition_set: male, Sprague Dawley, rat, stomach, iv, total radioactivity, BDL rats, 15 days post-op, 1 hour post-injection, no excess; read-out: Activity in Stomach, Mean
Numbered stars: 1 amine (or outer) side, 2 acyl side, 3 side chain; on linkers, the order of the positions; unused ones are H or OH. Bridge positions count the residues as written; N and C are the ends. Side chains are listed from the residue outwards. Peptide text beside a SMILES is read from it. * marks the point of attachment. X1 = C/C(=N\O)C(C)(C)NCCC(CCNC(C)(C)/C(C)=N/O)CCN*; Glutaryl = O=C(CCCC(=O)[*:2])[*:1]; X2 = NC(=O)COCC(=O)NCCOCCOCCOCCN*
value_kind: tissue uptake dose at 1 h (%ID)

compound | reported_result
C/C(=N\O)C(C)(C)NCCC(CCNC(=O)CCCC(=O)NCCCC[C@@H]1NC(=O)CSC[C@@H](C(=O)NCCOCCOCCOCCNC(=O)COCC(N)=O)NC(=O)[C@H](Cc2ccccc2)NC(=O)[C@@H]2CSSC[C@H](NC1=O)C(=O)N[C@@H](CCCNC(=N)N)C(=O)NCC(=O)N[C@@H](CC(=O)O)C(=O)N2)CCNC(C)(C)/C(C)=N/O (stereo partly shown) [Compound 8] ({CH2CO}-K([Glutaryl-X1])CRGDCFC-X2; disulfide 2-6; thioether N-8) | 0.89

* * *

- experiment_description: Biodistribution in sham-operated rats with and without excess cold compound
- Assay type: in vivo
- condition_set: male, Sprague Dawley, rat, lung, iv, 3 MBq, total radioactivity, 15 days post-op, 1 hour post-injection, +10K-fold excess cold Compound 8, read-out: Activity in Lung, Mean
Numbered stars: 1 amine (or outer) side, 2 acyl side, 3 side chain; on linkers, the order of the positions; unused ones are H or OH. Bridge positions count the residues as written; N and C are the ends. Side chains are listed from the residue outwards. Peptide text beside a SMILES is read from it. * marks the point of attachment. X1 = C/C(=N\O)C(C)(C)NCCC(CCNC(C)(C)/C(C)=N/O)CCN*; Glutaryl = O=C(CCCC(=O)[*:2])[*:1]; X2 = NC(=O)COCC(=O)NCCOCCOCCOCCN*

compound | tissue uptake dose at 1 h, %ID
C/C(=N\O)C(C)(C)NCCC(CCNC(=O)CCCC(=O)NCCCC[C@@H]1NC(=O)CSC[C@@H](C(=O)NCCOCCOCCOCCNC(=O)COCC(N)=O)NC(=O)[C@H](Cc2ccccc2)NC(=O)[C@@H]2CSSC[C@H](NC1=O)C(=O)N[C@@H](CCCNC(=N)N)C(=O)NCC(=O)N[C@@H](CC(=O)O)C(=O)N2)CCNC(C)(C)/C(C)=N/O (stereo partly shown) [Compound 8] ({CH2CO}-K([Glutaryl-X1])CRGDCFC-X2; disulfide 2-6; thioether N-8) | 0.39

Cited source for all entries: patent US8834843B2
